- Measurement target: 17β-hydroxysteroid dehydrogenase type 10 (HSD10) (Homo sapiens, UniProt Q99714)
- Construct: HSD10 overexpressed in HEK293 cells
- Sequence (Q99714 2-261): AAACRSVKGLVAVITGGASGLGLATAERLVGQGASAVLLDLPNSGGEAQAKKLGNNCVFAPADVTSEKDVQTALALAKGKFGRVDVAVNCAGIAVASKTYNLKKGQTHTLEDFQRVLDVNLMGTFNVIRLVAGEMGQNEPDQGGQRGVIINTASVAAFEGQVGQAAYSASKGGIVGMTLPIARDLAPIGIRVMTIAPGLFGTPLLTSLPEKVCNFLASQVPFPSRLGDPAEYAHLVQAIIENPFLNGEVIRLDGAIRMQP
- Assay overview: (-)-CHANA fluorogenic probe turnover in HSD10-overexpressing HEK293 cells
Attribute measured: IC50 (µM)

[[record]]
molecule = "COc1ccc2nc(NC(=O)c3ccc(O)c(Cl)c3)sc2c1 [compound 34, inhibitor 34]"
attribute_measured = "IC50"
reading = 4.26

[[record]]
molecule = "O=C(C(c1ccccc1)n1cnc2[nH]ncc2c1=S)N1CCCCCC1 (centres unmarked) [AG18051]"
attribute_measured = "IC50"
reading = 0.19

